# Tested on: Streptococcus pyogenes C203
# TEST NAME: MIC, standard broth micro-dilution assay, SPY C203
# Format: cell-based
RESULT TYPE: Minimal Inhibitory Concentration (MIC) SPY C203

Req: For the record CCCCc1ccc(NC(=S)N(C)C(CC(C)C)C(=O)NC2C(=O)NC(CC(N)=O)C(=O)NC3C(=O)NC4C(=O)NC(C(=O)NC(C(=O)O)c5cc(O)cc(O)c5-c5cc4ccc5O)C(OC4CC(C)(N)C(O)C(C)O4)c4ccc(c(Cl)c4)Oc4cc3cc(c4OC3OC(CO)C(O)C(O)C3OC3CC(C)(NCc4ccc(Oc5ccccc5)cc4)C(O)C(C)O3)Oc3ccc(cc3Cl)C2O)cc1 (stereo not drawn) , what value of Minimal Inhibitory Concentration (MIC) SPY C203 is listed for Streptococcus pyogenes C203?
Resp: 0.25

Req: Entry to check: CC(C)CC(C(=O)NC1C(=O)NC(CC(N)=O)C(=O)NC2C(=O)NC3C(=O)NC(C(=O)NC(C(=O)O)c4cc(O)cc(O)c4-c4cc3ccc4O)C(OC3CC(C)(N)C(O)C(C)O3)c3ccc(c(Cl)c3)Oc3cc2cc(c3OC2OC(CO)C(O)C(O)C2OC2CC(C)(NCc3ccc(Cl)cc3)C(O)C(C)O2)Oc2ccc(cc2Cl)C1O)N(C)C(=S)Nc1cccc2ccccc12 (stereo not drawn)
Resp: ≤ 0.06

Req: # repeat for CC(C)CC(C(=O)NC1C(=O)NC(CC(N)=O)C(=O)NC2C(=O)NC3C(=O)NC(C(=O)NC(C(=O)O)c4cc(O)cc(O)c4-c4cc3ccc4O)C(OC3CC(C)(N)C(O)C(C)O3)c3ccc(c(Cl)c3)Oc3cc2cc(c3OC2OC(CO)C(O)C(O)C2OC2CC(C)(NCc3ccc(Cl)cc3)C(O)C(C)O2)Oc2ccc(cc2Cl)C1O)N(C)C(=S)Nc1ccc(Cl)cc1 (stereo not drawn)
Resp: ≤ 0.06

###

Please go through the items and note down their Minimal Inhibitory Concentration (MIC) SPN P1.
# Test system: Streptococcus pneumoniae P1
# TEST NAME: MIC, standard broth micro-dilution assay, SPN P1
# Type: cell-based
# Procedure: The antibacterial efficacy of the present compounds is illustrated by Table II. The minimal inhibitory concentrations (MICs) were determined using a standard broth micro-dilution assay.
// return a plain number; no unit text

Req: Record lookup: for Streptococcus pneumoniae P1, what Minimal Inhibitory Concentration (MIC) SPN P1 belongs to CC(C)CC(C(=O)NC1C(=O)NC(CC(N)=O)C(=O)NC2C(=O)NC3C(=O)NC(C(=O)NC(C(=O)O)c4cc(O)cc(O)c4-c4cc3ccc4O)C(OC3CC(C)(N)C(O)C(C)O3)c3ccc(c(Cl)c3)Oc3cc2cc(c3OC2OC(CO)C(O)C(O)C2OC2CC(C)(N)C(O)C(C)O2)Oc2ccc(cc2Cl)C1O)N(C)C(=S)Nc1ccc(N(C)C)cc1 (centres unmarked) [Example 15] ?
Resp: 0.25

Req: For CC(C)CC(C(=O)NC1C(=O)NC(CC(N)=O)C(=O)NC2C(=O)NC3C(=O)NC(C(=O)NC(C(=O)O)c4cc(O)cc(O)c4-c4cc3ccc4O)C(OC3CC(C)(N)C(O)C(C)O3)c3ccc(c(Cl)c3)Oc3cc2cc(c3OC2OC(CO)C(O)C(O)C2OC2CC(C)(N)C(O)C(C)O2)Oc2ccc(cc2Cl)C1O)N(C)C(=S)Nc1cccc2ccccc12 (centres unmarked) [Example 5, N^LEU -(1-NAPHTHYLTHIOCARBAMOYL)A82846B] then?
Resp: 1

Req: Could you do the same for CC(C)CC(C(=O)NC1C(=O)NC(CC(N)=O)C(=O)NC2C(=O)NC3C(=O)NC(C(=O)NC(C(=O)O)c4cc(O)cc(O)c4-c4cc3ccc4O)C(OC3CC(C)(N)C(O)C(C)O3)c3ccc(c(Cl)c3)Oc3cc2cc(c3OC2OC(CO)C(O)C(O)C2OC2CC(C)(NCc3ccc(Oc4ccccc4)cc3)C(O)C(C)O2)Oc2ccc(cc2Cl)C1O)N(C)C(=S)Nc1ccc(N(C)C)cc1 (centres unmarked) [Example 19] , please?
Resp: 2
